src = patent US20230250188A1

kon listing for selected binders.
test-target: T1, recombinant human GPC1 protein (R&D Systems) (human, UniProt P35052 24-530)
T1 construct: Bought recombinant protein (R&D Systems); also called human GPC-1 antigen; Glypican-1
T1 sequence: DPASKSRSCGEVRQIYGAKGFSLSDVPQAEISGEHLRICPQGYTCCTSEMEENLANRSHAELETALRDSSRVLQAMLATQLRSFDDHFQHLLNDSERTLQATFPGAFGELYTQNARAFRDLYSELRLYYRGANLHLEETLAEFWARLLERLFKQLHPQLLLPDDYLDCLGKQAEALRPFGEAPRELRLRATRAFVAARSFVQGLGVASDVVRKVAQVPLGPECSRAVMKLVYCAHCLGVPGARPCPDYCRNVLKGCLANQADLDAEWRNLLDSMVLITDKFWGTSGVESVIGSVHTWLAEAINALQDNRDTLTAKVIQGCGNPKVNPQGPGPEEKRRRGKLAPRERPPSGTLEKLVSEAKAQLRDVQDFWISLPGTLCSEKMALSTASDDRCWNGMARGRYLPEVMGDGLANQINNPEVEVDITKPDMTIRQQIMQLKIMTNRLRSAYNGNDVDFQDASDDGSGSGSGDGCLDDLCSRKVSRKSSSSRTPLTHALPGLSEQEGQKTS
assay-protocol: SPR (Biacore 8K); antibody captured by anti-human IgG (Fc) on a CM5 chip, recombinant human GPC1 flowed over
Please provide the amount together with its unit, number first.

binder="humanized anti-GPC1 monoclonal antibody clone T31 (antibody, human IgG4 S228P, kappa, V domains shown, IgG) VH: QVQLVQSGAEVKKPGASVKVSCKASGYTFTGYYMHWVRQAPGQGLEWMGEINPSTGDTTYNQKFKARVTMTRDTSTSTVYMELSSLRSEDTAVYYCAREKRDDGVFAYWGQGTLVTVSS VL: AIQMTQSPATLSLSPGQRATLSCRASQSVSNYLAWYQQKPGQAPRLLIYDVSNRASGIPARFSGSGSGTDFTLTISSLEPEDFAIYYCQQRSNWPLTFGQGTKVDIKR" val="198000 M⁻¹ s⁻¹"

Next item in the queue.
Data request: Param item = humanized anti-GPC1 monoclonal antibody clone T56 (antibody, human IgG4 S228P, kappa, V domains shown, IgG) VH: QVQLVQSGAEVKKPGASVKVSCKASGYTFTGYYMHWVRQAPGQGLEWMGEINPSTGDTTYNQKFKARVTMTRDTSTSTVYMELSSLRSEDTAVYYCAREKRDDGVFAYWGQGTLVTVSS VL: DIVMTQSPSTLSASVGDRVTIICRASQSIGPWLAWYQQKSGKAPKLLIYGASNLQSGVPSRFSGSGYGTDFTLTISSLQPEDFATYYCQQTSSAPFTFGPGTKVDIKR ; retrieve measured kon.
Data returned: 259000 M⁻¹ s⁻¹
